- Test system: Escherichia coli TOP10;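 also: peptides expressed intracellularly from a pBAD plasmid library in pooled LB shake-flask culture, induced with 0.3% L-arabinose, DNA abundance read by NGS, three biological replicates, DESeq2 with apeglm shrinkage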
- measurement_protocol: shrunken log2 fold change of peptide-encoding DNA abundance (4.5 h post-induction vs induction); higher = less antimicrobial activity (less host growth inhibition)
- assay_setup: time post-induction: 4.5 h; library: site-saturation at positions 5, 18, 19, 20
value_kind: shrunken log2 fold change
One number for each entry.

Answered cases to consult:
construct_sequence: RRIRMRPPRLPRPRPRPSREPRP
shrunken log2 fold change: 0.545

construct_sequence: RRIRCRPPRLPRPRPRPWQNPRP
shrunken log2 fold change: -0.124

construct_sequence: RRIRYRPPRLPRPRPRPSMEPRP
shrunken log2 fold change: -0.408

construct_sequence: RRIRRRPPRLPRPRPRPLSTPRP
shrunken log2 fold change: 0.021

construct_sequence: RRIRVRPPRLPRPRPRPYLCPRP
shrunken log2 fold change: 0.0235

construct_sequence: RRIRHRPPRLPRPRPRPATTPRP
shrunken log2 fold change: -0.101

// for each sequence in input: emit shrunken log2 fold change
1. RRIRCRPPRLPRPRPRPDNTPRP
2. RRIRGRPPRLPRPRPRPPFTPRP

Output:
1. 0.881
2. 0.462
